Source: BigSolDB 2.1

Conditions: in acetonitrile, 278.15 K
MEASURE: solubility (mole fraction)

Please give the measured solubility (mole fraction) for this compound: "O=[N+]([O-])c1c(Cl)cc(Cl)c([N+](=O)[O-])c1Cl"
0.0224

* * *

Details: in tetrachloromethane, 293.15 K
MEASURE: solubility (mole fraction)
Numbers only.

Please give the measured solubility (mole fraction) for this molecule: "O=[N+]([O-])c1c(Cl)cc(Cl)c([N+](=O)[O-])c1Cl"
0.0277

* * *

Settings: in chloroform, 318.15 K
MEASURE: solubility (mole fraction)
One number for each entry.

Please give the measured solubility (mole fraction) for this molecule: "O=[N+]([O-])c1c(Cl)cc(Cl)c([N+](=O)[O-])c1Cl"
0.197
